src = patent US20240208992A1

# subject.of.test: human F508del-CFTR (Homo sapiens, UniProt P13569, DEL508-508)
# Sequence (P13569 with tags, fused parts or gaps DEL508-508): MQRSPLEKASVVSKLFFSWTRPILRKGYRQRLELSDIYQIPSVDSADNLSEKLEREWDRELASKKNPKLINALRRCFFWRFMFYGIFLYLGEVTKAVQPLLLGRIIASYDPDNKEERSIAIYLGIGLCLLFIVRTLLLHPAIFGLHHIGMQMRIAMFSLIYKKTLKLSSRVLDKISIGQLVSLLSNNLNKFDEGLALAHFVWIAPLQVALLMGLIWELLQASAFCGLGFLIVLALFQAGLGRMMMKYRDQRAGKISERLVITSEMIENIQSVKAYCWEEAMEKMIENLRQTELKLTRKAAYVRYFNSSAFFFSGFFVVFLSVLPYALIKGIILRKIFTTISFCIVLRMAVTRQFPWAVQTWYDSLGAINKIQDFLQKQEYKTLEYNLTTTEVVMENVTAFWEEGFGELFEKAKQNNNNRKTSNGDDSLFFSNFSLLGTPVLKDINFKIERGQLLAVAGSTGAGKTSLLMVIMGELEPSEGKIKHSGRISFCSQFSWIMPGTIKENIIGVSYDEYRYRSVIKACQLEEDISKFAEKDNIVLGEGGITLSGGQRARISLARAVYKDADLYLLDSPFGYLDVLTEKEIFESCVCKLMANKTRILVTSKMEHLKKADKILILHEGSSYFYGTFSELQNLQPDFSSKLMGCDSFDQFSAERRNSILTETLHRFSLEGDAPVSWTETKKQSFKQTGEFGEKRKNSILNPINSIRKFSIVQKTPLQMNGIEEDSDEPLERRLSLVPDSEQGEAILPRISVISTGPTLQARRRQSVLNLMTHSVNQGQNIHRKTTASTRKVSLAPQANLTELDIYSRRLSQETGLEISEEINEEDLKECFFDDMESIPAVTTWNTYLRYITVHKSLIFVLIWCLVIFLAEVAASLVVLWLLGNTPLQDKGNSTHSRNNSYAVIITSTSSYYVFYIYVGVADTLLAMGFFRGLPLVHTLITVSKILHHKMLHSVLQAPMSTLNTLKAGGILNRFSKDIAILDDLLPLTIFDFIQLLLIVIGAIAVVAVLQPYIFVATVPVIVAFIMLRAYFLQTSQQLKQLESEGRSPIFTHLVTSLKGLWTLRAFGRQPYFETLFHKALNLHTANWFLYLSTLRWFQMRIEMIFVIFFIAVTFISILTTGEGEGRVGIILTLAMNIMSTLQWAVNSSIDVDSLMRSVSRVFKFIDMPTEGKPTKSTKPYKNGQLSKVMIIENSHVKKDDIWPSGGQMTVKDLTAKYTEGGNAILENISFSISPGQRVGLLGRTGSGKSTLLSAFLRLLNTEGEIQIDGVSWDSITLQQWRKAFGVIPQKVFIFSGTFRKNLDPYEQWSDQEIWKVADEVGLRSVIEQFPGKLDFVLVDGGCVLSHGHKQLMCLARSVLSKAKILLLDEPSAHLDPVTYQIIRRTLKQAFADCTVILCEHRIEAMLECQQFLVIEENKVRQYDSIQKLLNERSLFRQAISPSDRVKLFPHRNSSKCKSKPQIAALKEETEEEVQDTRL
# assay.name: F508del-CFTR cell surface expression (corrector activity), DiscoveRx ß-galactosidase complementation chemiluminescence assay in recombinant U2OS cell line
# test.settings: EC50, F508del-CFTR cell surface expression, U2OS cells, 16h compound incubation; geomean values
property.label: EC50 (nM)
Record the value in nM, omitting the unit from your answer.

Look over these answered cases.
COc1nccc2c1C(=O)N[C@H](C(=O)NCCc1noc(C3CC3)n1)CC(=O)N(C)[C@@H](CC(C)C)C(=O)N1CCCC[C@@H]1C(=O)N[C@H](Cc1ccccc1)CO2 | 517
COc1cccc(CCNC(=O)[C@@H]2CC(=O)N(C)[C@@H](CC(C)C)C(=O)N(C)CC(=O)N[C@H](Cc3ccccc3)COc3ccc4cnccc4c3C(=O)N2)c1 | 800
CC(C)C[C@H]1C(=O)N2CCCC[C@H]2C(=O)N[C@H](Cc2ccccc2)COc2ccc3ncc(F)cc3c2C(=O)N[C@H](C(=O)NCCc2cc(C3CC3)no2)CC(=O)N1C | 875
CC(C)C[C@H]1C(=O)N2CCCC[C@@H]2C(=O)N[C@H](Cc2ccccc2)COc2ccc3ncccc3c2C(=O)N[C@H](C(=O)NCCc2nc(C3CC3)no2)CC(=O)N1C | 229
COc1cccc(CCNC(=O)[C@@H]2CC(=O)N(C)[C@@H](CC(C)C)C(=O)N3CCN(S(=O)(=O)C4CCOCC4)C[C@@H]3C(=O)N[C@H](Cc3ccccc3)COc3ccc4ccccc4c3C(=O)N2)c1 | 299
COc1cccc(CCNC(=O)[C@@H]2CC(=O)N(C)[C@@H](CC(C)C)C(=O)N(C)[C@@H](C)C(=O)N[C@H](Cc3ccccc3)COc3cnc4ccccc4c3C(=O)N2)c1 | 701

In the following, a different molecule is considered.
query: Please give the measured EC50 for this molecule: [2H]C([2H])([2H])Oc1nc(C)cc2c1C(=O)N[C@H](C(=O)NCCc1cc(C3CC3)no1)CC(=O)N(C)[C@@H](CC(C)C)C(=O)N1CCCC[C@@H]1C(=O)N[C@H](Cc1ccccc1)CO2
result: 359

====

# subject.of.test: human F508del-CFTR (Homo sapiens, UniProt P13569, DEL508-508)
# assay.name: F508del-CFTR cell surface expression (corrector activity), DiscoveRx ß-galactosidase complementation chemiluminescence assay in recombinant U2OS cell line;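 also: U2OS cells co-expressing ProLink-tagged F508del-CFTR and a membrane-anchored enzyme acceptor, where more surface CFTR restores β-galactosidase activity measured by chemiluminescence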
# test.settings: EC50, F508del-CFTR cell surface expression, U2OS cells, 16h compound incubation; geomean of several measurements
property.label: EC50 (nM)
Record the value in nM, omitting the unit from your answer.

Look over these answered cases.
COc1nc(C)cc2c1C(=O)N[C@H](C(=O)NC[C@@H](O)c1ccccc1)CC(=O)N(C)[C@@H](CC(C)C)C(=O)N(C)[C@H](Cc1nc(C(F)(F)F)no1)C(=O)N[C@H](Cc1ccccc1)CO2 | 225
COc1cc(CCNC(=O)[C@@H]2CC(=O)N(C)[C@@H](CC(C)C)C(=O)N(C)[C@H](CN3CCC(F)(F)C3)C(=O)N[C@H](Cc3ccccc3)COc3cnc4ccc(F)cc4c3C(=O)N2)on1 | 54
COc1nccc2c1C(=O)N[C@H](C(=O)NCCc1noc(C3CC3)n1)CC(=O)N(C)[C@@H](CC(C)C)C(=O)N1CCCCC[C@@H]1C(=O)N[C@H](Cc1ccccc1)CO2 | 587
CCOCC[C@@H]1C(=O)N[C@H](Cc2ccccc2)COc2ccc3ncc(F)cc3c2C(=O)N[C@H](C(=O)NCCc2nc(OC)no2)CC(=O)N(C)[C@@H](CC(C)C)C(=O)N1C | 306

query: I'm curious: which EC50 was measured for COc1ccc(CCNC(=O)[C@@H]2CC(=O)N(C)[C@@H](CC(C)C)C(=O)N(C)[C@H](Cc3nc(-c4ccc(F)cn4)no3)C(=O)N[C@H](Cc3ccccc3)COc3cnc4ccc(F)cc4c3C(=O)N2)cn1 tested on human F508del-CFTR (Homo sapiens, UniProt P13569, DEL508-508)?
result: 114

query: I'm curious: which EC50 was measured for COc1nc(C)cc2c1C(=O)N[C@H](C(=O)NC[C@@H](O)c1nc(C3CC3)no1)CC(=O)N(C)[C@@H](CC(C)C)C(=O)N(C)[C@H](Cc1nc(C(F)(F)F)no1)C(=O)N[C@H](Cc1ccccc1)CO2 tested on human F508del-CFTR (Homo sapiens, UniProt P13569, DEL508-508)?
result: 240

query: I'm curious: which EC50 was measured for CC(C)C[C@H]1C(=O)N(C)[C@H](Cc2nc(-c3ccc(F)cn3)no2)C(=O)N[C@H](Cc2ccccc2)COc2cnc3ccc(F)cc3c2C(=O)N[C@H](C(=O)NCCn2ncc(C3CC3)n2)CC(=O)N1C tested on human F508del-CFTR (Homo sapiens, UniProt P13569, DEL508-508)?
result: 198

query: I'm curious: which EC50 was measured for COc1cc(OCC[C@@H]2C(=O)N[C@H](Cc3ccccc3)COc3cc(C)nc(OC)c3C(=O)N[C@H](C(=O)NCCc3cc(OC)no3)CC(=O)N(C)[C@@H](CC(C)C)C(=O)N2C)ccn1 tested on human F508del-CFTR (Homo sapiens, UniProt P13569, DEL508-508)?
result: 129

query: I'm curious: which EC50 was measured for Cc1cc2c3c(ccc2cn1)OC[C@@H](Cc1ccccc1)NC(=O)[C@@H](CC(F)(F)F)N(C)C(=O)[C@H](CC(C)C)N(C)C(=O)C[C@@H](C(=O)NCCc1cc(C2CC2)no1)NC3=O tested on human F508del-CFTR (Homo sapiens, UniProt P13569, DEL508-508)?
result: 508

query: I'm curious: which EC50 was measured for COc1cc(CCNC(=O)[C@@H]2CC(=O)N(C)[C@@H](CC(C)C)C(=O)N(C)[C@H](C)C(=O)N[C@H](Cc3ccccc3)COc3ccc4cnc(C)cc4c3C(=O)N2)on1 tested on human F508del-CFTR (Homo sapiens, UniProt P13569, DEL508-508)?
result: 353
